meta.source: PubChem BioAssay (NCI)

Tested on: SR leukemia
TEST DESCRIPTION: NCI tumour cell line growth inhibition, 48 h
TGI: recorded values
READOUT: TGI (µM)

> print(dat)
                                    compound  unit.abbreviation  qualifier.symbol  value
 1  CCOC(=O)/C(=C\c1c(C)[nH]c2ccccc12)P(=O)(OCC)OCC                 µM                 >    100
 2             NC(=O)c1ncn2c(=O)n(CCCl)nnc12                 µM                 =    801
 3  C[C@@H](Oc1cc(-c2cnn(C3CCNCC3)c2)cnc1N)c1c(Cl)cc(F)cc1Cl                 µM                 =   1.52
 4  CCS(=O)(=O)N1CCN(c2ccc(Nc3ncc(C(N)=O)c(NC4CC4)n3)cc2)CC1                 µM                 =   23.4
 5  C[C@]12CC[C@H](O)CC1=CC[C@@H]1[C@@H]2CC[C@]2(C)NC(=O)/C(=C\c3ccccc3)C[C@@H]12                 µM                 >    100
 6  CC(=O)/C=C/c1ccc(N(CCO)Cc2ccc(C(C)(C)C)cc2)cc1                 µM                 =    169
 7           NC(=O)NC(=O)c1cccc(NC(=O)CCl)c1                 µM                 =   3.92
 8  CC12CCC(=O)[C@@]1(C)CCCC2O (stereo partly specified)                 µM                 >    100
 9  Cc1cc(OCc2nn(CN3CCN(C)CC3)c(=S)n2/N=C/c2ccc(F)cc2)ccc1Cl                 µM                 =   29.7
10  CCC(C)C(=O)OC1CCC=C2C=CC(C)C(CCC3CC(O)CC(=O)O3)C21 (stereo unspecified)                 µM                 >     51
11  Cn1cc(-c2nc(-c3cn(C)c4ncccc34)cs2)c2ccccc21                 µM                 >    100
